# Lookup of reported % of cells in gate V1-R at 3.7 nM keyed by entry
Molecular target: T1, B7-H3 on MDA-MB-468 cells (human, UniProt Q5ZPR3)
T1 construct: endogenous, on the cell surface
T1 sequence (cell surface antigen, looked up): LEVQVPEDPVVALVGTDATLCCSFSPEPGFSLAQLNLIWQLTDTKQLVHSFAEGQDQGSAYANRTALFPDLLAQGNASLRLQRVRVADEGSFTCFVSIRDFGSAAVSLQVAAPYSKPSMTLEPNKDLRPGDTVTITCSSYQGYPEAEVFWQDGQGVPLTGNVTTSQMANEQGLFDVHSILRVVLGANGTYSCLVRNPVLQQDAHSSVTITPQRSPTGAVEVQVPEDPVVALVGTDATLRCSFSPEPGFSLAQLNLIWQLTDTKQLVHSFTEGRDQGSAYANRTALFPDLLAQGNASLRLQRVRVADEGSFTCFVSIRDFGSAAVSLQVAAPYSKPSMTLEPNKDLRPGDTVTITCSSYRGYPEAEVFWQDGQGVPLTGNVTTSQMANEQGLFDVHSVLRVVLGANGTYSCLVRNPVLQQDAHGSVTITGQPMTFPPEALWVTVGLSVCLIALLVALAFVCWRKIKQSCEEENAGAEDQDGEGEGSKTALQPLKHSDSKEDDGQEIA
Assay: flow cytometry on MDA-MB-468 cells; blank V2-R 0.9%
Field format: number, assumed %, no unit text.

Consider the worked cases shown below.
Binder | Numeric Result
Antibody V2 (antibody, human IgG1, kappa, V domains shown, Humanized from chimeric antibody M1; also called humanized antibody V2) VH: EVQLVQSGAEVKKSGESLKISCKASGYTFTDYDINWVRQMPGKGLEWIGWIFPGDDTTKYNEKFKGQVTLSADKSTNTAYMQWSSLKASDTAMYYCARSPSFDYWGQGTLVTVSS VL: QIVLTQSPGTLSLSPGERATLSCSASSTIGFMYWYQQKPGQAPRRWIYDTSKLASGVPDRFSVSGSGTDYTLTISRLEPEDFAVYYCHQRSSYPTFGQGTKVEIKR | 60.1
Antibody V5 (antibody, human IgG1, kappa, V domains shown, Humanized from chimeric antibody M1; also called humanized antibody V5) VH: QVQLVQSGAEVKKPGASVKVSCKASGYTFTDYDINWVRQAPGQRLEWIGWIFPGDDTTKYNEKFKGRATLTADKSASTAYMELSSLRSEDTAVYYCARSPSFDYWGQGTLVTVSS VL: QIVLTQSPSSLSASVGDRVTITCSASSTIGFMYWYQQKPGKAPKRWIYDTSKLASGVPSRFSVSGSGTDYTLTISSLQPEDFATYYCHQRSSYPTFGQGTKVEIKR | 92.6

Query: Fill in the blank: the reported % of cells in gate V1-R at 3.7 nM of Antibody V3 (antibody, human IgG1, kappa, V domains shown, Humanized from chimeric antibody M1; also called humanized antibody V3) VH: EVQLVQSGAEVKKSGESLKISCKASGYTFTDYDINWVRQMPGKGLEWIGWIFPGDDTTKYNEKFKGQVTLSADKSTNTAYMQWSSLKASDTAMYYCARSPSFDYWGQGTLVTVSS VL: QIVLTQSPGTLSLSPGERATLSCSASSTIGFMYWYQQKPGQAPRRWIYDTSKLASGVPDRFSGSGSGTDYTLTISRLEPEDFAVYYCHQRSSYPTFGQGTKVEIKR is ____.
Response: 94

Origin of the recorded values: patent US20250262316A1
